B1: POU domain, class 2, transcription factor 2, residues 200 to 269; numbered along this chain, P09086 (parent)
chain: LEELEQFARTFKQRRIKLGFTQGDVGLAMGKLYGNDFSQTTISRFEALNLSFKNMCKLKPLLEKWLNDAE

variants of: B1; assay: abundance fitness (aPCA) (normalised: wild type 0, dead -1); higher = more abundant; growth selection in yeast, the domain comes from the species named; conditions: Homo sapiens
Hi there, I'd appreciate the recorded abundance fitness for every entry that follows.
Numbers only.

Dear colleague, could you please provide abundance fitness for the variants listed below?
1. S38E
2. K64P
3. Q39H
4. T41R
5. A8G

Given back:
1: -0.015; 2: -0.343; 3: -0.11; 4: -0.179; 5: -0.28

Reference source: the Human Domainome abundance scans (Beltran et al. 2025)
